Method Summary: qHTS of pediatric cancer cell lines to identify multiple opportunities for drug repurposing: Confirmatory screen for BT-12 cells (AID 1347112);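 further: viability read after 48 h of compound exposure; nearly all actives have a fitted effect of over 55% in size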
Assay Setup: BT-12 rhabdoid tumor cells, viability; series mostly up to 45.9 µM
Records with an inconclusive call do not appear. The source made the active and inactive calls. The call rests on the fitted dose curve; in most records, active means well fitted cell-killing curve with a large enough effect; inconclusive means small, poorly fitted or top-dose-only effect; inactive means flat fitted curve, though single readings scatter. Starred links: 1 amine or outer side, 2 acyl side, 3 side chain; linkers in the order of their positions; H or OH if unused. Positions of bridges follow the written chain, without caps; N, C: chain ends. Non-standard residues stand in square brackets, D forms with d. Residues, ends and D or L forms follow the SMILES beside them. Chains are numbered I, II in the order given. *: point of attachment. Actinocin(9to1) = Cc1c2oc3c(C)ccc(C(=O)[*:1])c3nc-2c(C(=O)[*:2])c(N)c1=O; NMeV = CN[CH](C(=O)O)C(C)C; Nva = CCC[C@H](N)C(=O)O; Cbz = O=C(OCc1ccccc1)*; Sar = CNCC(=O)O
Your answer must be one of the following: active, inactive

These solved cases illustrate the format of a correct answer.
# Compound, Class Label
records = [
    ("Cc1c2oc3c(C)ccc(C(=O)NC4C(=O)NC(C(C)C)C(=O)N5CCCC5C(=O)N(C)CC(=O)N(C)C(C(C)C)C(=O)OC4C)c3nc-2c(C(=O)NC2C(=O)NC(C(C)C)C(=O)N3CCCC3C(=O)N(C)CC(=O)N(C)C(C(C)C)C(=O)OC2C)c(N)c1=O (centres undefined) (I: TVP[Sar][NMeV] / II: TVP[Sar][NMeV]; ester I:1-I:C, II:1-II:C; linker I:N-II:N via Actinocin(9to1); configuration not given here)", "active"),
    ("CCC[C@@H](C=O)NC(=O)[C@H](CC(C)C)NC(=O)[C@H](CC(C)C)NC(=O)OCc1ccccc1 (Cbz-Leu-Leu-[Nva]-aldehyde)", "active"),
    ("NS(=O)(=O)OC[C@@H]1C[C@@H](n2ccc3c(N[C@H]4CCc5ccccc54)ncnc32)C[C@H]1O", "inactive"),
]

Now look at this entry.
Enquiry: // param item: CC(C)NC[C@@H](C(=O)N1CCN(c2ncnc3c2[C@H](C)C[C@H]3O)CC1)c1ccc(Cl)cc1 ; yields the recorded call
Return: inactive

* * *

Method Summary: qHTS of pediatric cancer cell lines to identify multiple opportunities for drug repurposing: Primary screen for DAOY cells (AID 1347090); further: nearly all actives have a fitted effect of over 55% in size
Assay Setup: DAOY medulloblastoma viability, CellTiter-Glo luminescence, 48 h; series mostly up to 46 µM
Results filed as inconclusive are left out. Calls of active or inactive are those of the source. Calls follow the shape of the dose curve; as a rule, active = well fitted cell-killing curve with a large enough effect; inconclusive = small, poorly fitted or top-dose-only effect; inactive = flat fitted curve, though single readings scatter.
Return exactly one item of t = active, f = inactive

# Molecule, Class Label
records = [
    ("COc1ccc(C(C)=O)c(O)c1", "t"),
    ("CCOC(=O)[C@H](CCc1ccccc1)N[C@@H](C)C(=O)N1[C@@H](C(=O)O)C[C@H]2CCC[C@@H]21", "t"),
    ("COC(=O)[C@@H]1[C@H]2C[C@@H]3c4[nH]c5ccccc5c4CCN3C[C@@H]2CC[C@@H]1O", "f"),
    ("COc1ccnc2[nH]cc(C(=O)C(=O)N3CCN(C(=O)c4ccccc4)C[C@@H]3C)c12", "f"),
    ("CCc1cnn2c(NCc3ccc[n+]([O-])c3)cc(N3CCCC[C@@H]3CCO)nc12", "t"),
    ("COc1cc2c(cc1OC)[C@@H]1C(=O)c3ccc4c(c3O[C@@H]1CO2)C=CC(C)(C)O4", "t"),
]

Enquiry: Given CC(C)n1cnc2c(NCCc3ccc(O)cc3)nc(-c3csc4ccccc34)nc21 , state the outcome it received in this test.
Return: t

Enquiry: For Cc1ccccc1C(=O)Nc1ccc(C(=O)N2CCCC(O)c3cc(Cl)ccc32)c(C)c1 (configuration not stated) , what call appears in the results of this test?
Return: f

Enquiry: Just curious, what result did CC(=O)SCC(Cc1ccccc1)C(=O)NCC(=O)OCc1ccccc1 (configuration not stated) get here?
Return: t

Enquiry: # fetch the recorded call for C=C1C(=O)O[C@H]2[C@@H]1CCC(C)=CCC[C@@]1(C)O[C@@H]21 here
Return: t

Enquiry: Test call, this molecule: O=C1CSC(=O)N1C(CCc1ccncc1)COc1ccc(-c2cccc([N+](=O)[O-])c2)cc1 (configuration not stated)
Return: t

Enquiry: Which outcome did this test record for the molecule CC(C)(O)CC[C@@H](O)[C@](C)(O)[C@H]1CC[C@@]2(O)C3=CC(=O)[C@@H]4C[C@@H](O)[C@@H](O)C[C@]4(C)[C@@H]3CC[C@]12C ?
Return: f

* * *

Method Summary: Quantitative High-Throughput drug screen in 47 multiple myeloma cell lines against the NCATS MIPE library collection: KMS20_JCRB cell viability assay (AID 1918973); further: nearly all actives have a fitted effect of over 45% in size; further: potency means the concentration at half of the fitted maximal effect
Assay Setup: CellTiter-Glo ATP, 48 h; series mostly up to 45.8 µM
Records with an inconclusive call do not appear. The source made the active and inactive calls. Calls follow the shape of the dose curve; as a rule, active = well fitted cell-killing curve with a large enough effect; inconclusive = small, poorly fitted or top-dose-only effect, or effect the other way; inactive = no such curve, though single readings can be large or run the other way.
Measured Property: Potency

Illustrative cases are given below, each with its answer.
# Compound, Potency
records = [
    ("CCOC(=O)[C@H](CCc1ccccc1)N[C@@H](C)C(=O)N1[C@@H](C(=O)O)C[C@H]2CCC[C@@H]21", "4.69 µM (active)"),
    ("C[C@H](CCC(=O)O)[C@H]1CCC2C3C[C@H](O)[C@@H]4C[C@H](O)CC[C@]4(C)C3CC[C@@]21C (stereo partly drawn)", "inactive"),
    ("COc1cc(OC)cc(-c2ccc3ncc4ccc(=O)n(-c5ccc(N6CCNCC6)c(C(F)(F)F)c5)c4c3c2)c1", "4.18 µM (active)"),
    ("COc1cc2ncnc(Nc3cccc(Br)c3)c2cc1OC", "0.743 µM (active)"),
    ("CC(=O)SCC(Cc1ccccc1)C(=O)NCC(=O)OCc1ccccc1 (stereo not drawn)", "2.35 µM (active)"),
]

Enquiry: Name the recorded Potency of the item CC(C(C)N1CC(=O)NC(=O)C1)N1CC(=O)NC(=O)C1 (stereo not drawn) in your answer.
Return: inactive

Enquiry: Specify reported Potency for the compound shown: CCc1ccc(C(=O)Nc2cc(CN3CCN(C)CC3)cc(C(F)(F)F)c2)cc1C#Cc1cnc2ccnn2c1
Return: 3.72 µM (active)

* * *

Method Summary: qHTS of pediatric cancer cell lines to identify multiple opportunities for drug repurposing: Primary screen for NB1643 cells (AID 1347099); further: potency means the concentration at half of the fitted maximal effect; nearly all actives have a fitted effect of over 50% in size
Assay Setup: NB1643 neuroblastoma viability, CellTiter-Glo luminescence, 48 h; series mostly up to 46 µM
Results filed as inconclusive are left out. Calls of active or inactive are those of the source. Calls come from the whole dose curve; as a rule, active = well fitted cell-killing curve with a large enough effect; inconclusive = small, poorly fitted or top-dose-only effect; inactive = no such curve, though single readings can be large or run the other way.
Potency listing for selected molecules.

Solved cases below.
# Molecule, Potency
rows = [
    ("Nc1ccc(C(=O)Nc2cccc(-c3nc(N4CCOCC4)c4oc5ncccc5c4n3)c2)cn1", "2350 nM (active)"),
    ("COc1cc2ncnc(Nc3cccc(Br)c3)c2cc1OC", "7430 nM (active)"),
    ("CC(C)C[C@H](NC(=O)CNC(=O)c1cc(Cl)ccc1Cl)B1OC(=O)CC(CC(=O)O)(C(=O)O)O1 (stereo not given in full)", "372 nM (active)"),
    ("Cc1[nH]c(C=C2C(=O)Nc3ccccc32)c(C)c1CCC(=O)O", "3320 nM (active)"),
]

Enquiry: Input CCC(C=C[C@@H]1OC(=O)C=C[C@H]1C)=C[C@H](C)CC=CC(C)=C[C@@H](C)C(=O)[C@@H](C)[C@H](O)[C@@H](C)CC(C)=CC(=O)O , output reported Potency.
Return: 27.7 nM (active)

* * *

Tested on: MKL-1
Method Summary: qHTS assay to identify novel small-molecules to repurpose for Merkel cell carcinoma treatment (AID 1296009); further: nearly all actives have a fitted effect of over 60% in size
Assay Setup: MCC and control cell lines, CellTiter-Glo viability, 72 h; series mostly up to 46 µM
Inconclusive results are not listed. Activity calls are given as the source filed them. Calls follow the shape of the dose curve; as a rule, active = well fitted inhibition curve with a large enough effect; inconclusive = small, poorly fitted or top-dose-only effect; inactive = flat fitted curve, though single readings scatter.
API: response.call in true for active, false for inactive

Previously resolved entries follow.
# Compound Structure String, Class Label
rows = [
    ("Cc1nc(NC(=O)N2CCC[C@@H]2C(N)=O)sc1-c1ccnc(C(C)(C)C(F)(F)F)c1", "false"),
    ("C=C1C(=O)O[C@H]2[C@@H]1CCC(C)=CCC[C@@]1(C)O[C@@H]21", "true"),
    ("CCN(CC)CCCCNc1ncc2c(n1)N(C)C(=O)N(c1c(Cl)c(OC)cc(OC)c1Cl)C2", "false"),
    ("Nc1ccn(C[C@@H](CO)OCP(=O)(O)O)c(=O)n1", "false"),
    ("O=C(C=CC#Cc1cccc(NS(=O)(=O)c2ccccc2)c1)NO", "true"),
    ("O=C(CN1C(=O)C2(CCCC2)NC[C@H]1c1cc(F)cc(F)c1)Nc1ccc2c(c1)C[C@@]1(C2)C(=O)Nc2ncccc21", "false"),
]

# evaluate next
Enquiry: Query: recorded result category for COc1cccc2c1C(=O)c1c(O)c3c(c(O)c1C2=O)C[C@@](O)(C(=O)CO)C[C@@H]3O[C@H]1C[C@H](N)[C@@H](O)[C@H](C)O1 in this test
Return: true
